# credit: the supplement of paper PMC6555819

test system: FXR:RXRa (NR concentration 270 nM, RXRa partner concentration 90 nM); assay: PBM binding z-score (relative to random genomic background probes); higher = stronger binding; sequences stand for … in GC…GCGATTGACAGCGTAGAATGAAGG
Label rule, in plain words: PBM binding z-score of 1 and up is label 1, under 1 is label 0.

[[record]]
query_sequence = "GGAACGAGGGCATTCGAGTTTATAGCATGGCGAT"
assigned_label = "label 1"

[[record]]
query_sequence = "CCGACTGGCGCAGAAAGGTTACCATACCATCCGG"
assigned_label = "label 0"

[[record]]
query_sequence = "CCTATTAGTGGACCATAAGGGCAACCGAAGCTCG"
assigned_label = "label 0"

[[record]]
query_sequence = "TAGCCTAGGTCATTGGGCCAGGATAGTACGCATC"
assigned_label = "label 1"

[[record]]
query_sequence = "CTACCAAGGTGAACAAGGTCGTTTATTACTATTC"
assigned_label = "label 1"

[[record]]
query_sequence = "CCTCGGAGGACAACAGGAGGTCAGAGCCGCCAGA"
assigned_label = "label 0"

[[record]]
query_sequence = "AGTCAAAGTTCACTAGGTAACGTAGGATTCAGCT"
assigned_label = "label 1"

[[record]]
query_sequence = "TAGCCTAGGTCATTGGCCCAGTATAGTACGCATC"
assigned_label = "label 1"

[[record]]
query_sequence = "TCGAGTAGGTTAGTAGGGGCATTCAGCCAACATA"
assigned_label = "label 0"

[[record]]
query_sequence = "CAAACTAGGTCCAAGGTCAAAGTCGAGCCAACCA"
assigned_label = "label 1"

[[record]]
query_sequence = "CCGACTGGGGCAAGGGTACCATAACGCACAGCCA"
assigned_label = "label 0"

[[record]]
query_sequence = "TCTAGCAGGCCAGAGGCTCACTCAAGAGGTACGG"
assigned_label = "label 0"

[[record]]
query_sequence = "CGTCCAAAGTCAAGGTCAGTGAAAGAGACTCGAA"
assigned_label = "label 1"

[[record]]
query_sequence = "TAGCCTAGGTCATTGGGCCAGTCTAGTACGCATC"
assigned_label = "label 1"

[[record]]
query_sequence = "AGAATGAGCTTATTAAGATCAGGGAATTGCGGTC"
assigned_label = "label 0"

[[record]]
query_sequence = "GCTATTAATTGAAAGGGCAACCGAATGATTCTCG"
assigned_label = "label 0"

[[record]]
query_sequence = "TAGCCTACGTCATTCAGGGGCCAGTATAGAAAGC"
assigned_label = "label 0"

[[record]]
query_sequence = "TCGAGTAGGTTAGTCGGGGCAGTCAGCCAACATA"
assigned_label = "label 0"

[[record]]
query_sequence = "ATCGAAAGGTAGACGAGGTGAGTATACACCGTTT"
assigned_label = "label 0"

[[record]]
query_sequence = "CAAACTAGGTCACCGGAAGGTCAAGGTCCGCATG"
assigned_label = "label 1"

[[record]]
query_sequence = "TTCCCAAGGTGAAGGTCGTTGATCCCTCTGTAGA"
assigned_label = "label 1"

[[record]]
query_sequence = "ACTAGCAGGCCAAGTTTGCGTCACTCAAACAAAG"
assigned_label = "label 0"

[[record]]
query_sequence = "CCGATTGGGGCATAAGGTTACCATAAGCCAGCCC"
assigned_label = "label 0"

[[record]]
query_sequence = "CCGACTGGGGCAGAAATGTTACCATACCATCCGG"
assigned_label = "label 0"


###

Entries and their PBM binding z-score values follow.
system: RARg homodimer (NR concentration 270 nM); assay: PBM binding z-score (relative to random genomic background probes); higher = stronger binding; sequences stand for … in GC…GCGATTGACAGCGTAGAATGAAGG
readout.label: PBM binding z-score

[[record]]
query_sequence = "ACAGACAGGTGAGTGAAGATAACTCAGCTGGACG"
readout_label = "PBM binding z-score"
measured_number = 0.475

[[record]]
query_sequence = "ATCGAAAAGTCGACGAGGTGAGTATACACCGTTT"
readout_label = "PBM binding z-score"
measured_number = 0.571

[[record]]
query_sequence = "GCTAGCAGTCCATTTGGGTCACTCAATGACGGGC"
readout_label = "PBM binding z-score"
measured_number = 0.586

[[record]]
query_sequence = "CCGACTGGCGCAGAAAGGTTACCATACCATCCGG"
readout_label = "PBM binding z-score"
measured_number = 0.575

[[record]]
query_sequence = "CGGCCAAGGTCATAGGAGGTCAGTGAAGACAGAT"
readout_label = "PBM binding z-score"
measured_number = 7.19

[[record]]
query_sequence = "CAAACTAGGTCAAGGTCAATGTCGGTTTGTGCCA"
readout_label = "PBM binding z-score"
measured_number = 6.81

[[record]]
query_sequence = "GGAACGAGGGCATTCGATTTGATAGCATGGCGAT"
readout_label = "PBM binding z-score"
measured_number = 1.49

[[record]]
query_sequence = "CGTCCAAGGTGAAGGTCAGTGAAAGAGACTCGAA"
readout_label = "PBM binding z-score"
measured_number = 3.88

[[record]]
query_sequence = "CAAACTTGGTCAAGAGGTCAAAGTCCGCTTCCCG"
readout_label = "PBM binding z-score"
measured_number = 4.95

[[record]]
query_sequence = "GGAACGAGGGCATTCGAGTGGATAGCATGGCGAT"
readout_label = "PBM binding z-score"
measured_number = 1.23

[[record]]
query_sequence = "CCTAGCACGCCAATCTGGGTCACTCAAGGCTTGA"
readout_label = "PBM binding z-score"
measured_number = 0.494

[[record]]
query_sequence = "TTACCAAGGTGAAGGTCGTTGAACCCTCTGTAGA"
readout_label = "PBM binding z-score"
measured_number = 1.52

[[record]]
query_sequence = "TCGAGTAGGTTAGTCGGGGCATTGAGCCAACATA"
readout_label = "PBM binding z-score"
measured_number = 0.0255


###

test system: LXRb homodimer (NR concentration 270 nM); assay: PBM binding z-score (relative to random genomic background probes); higher = stronger binding; sequences stand for … in GC…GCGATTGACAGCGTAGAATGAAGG
Kindly return Criterion met if reported PBM binding z-score is no lower than 1; return Criterion not met if it is lower.

[[record]]
query_sequence = "CCTAATGGGCCAAAGGTCATTGATTCCAATGCTC"
assigned_label = "Criterion met"

[[record]]
query_sequence = "ATATGTAGGTCACATCCGGGTCATTCAGGCTATG"
assigned_label = "Criterion met"

[[record]]
query_sequence = "TCGAGTAGGTTAGTCGGGGCATTCAACCAACATA"
assigned_label = "Criterion not met"

[[record]]
query_sequence = "CCTGCTAGGTCAATGGACAGCTAAAGCAGCTCGC"
assigned_label = "Criterion not met"

[[record]]
query_sequence = "CGAACTAGGTCATTGACAGGACTGTGAATAGTAA"
assigned_label = "Criterion not met"

[[record]]
query_sequence = "CCGACTGGGGCATAAGGTTTCCATAAGCCAGCCC"
assigned_label = "Criterion not met"

[[record]]
query_sequence = "AATACAGGGTCACTATGCCAGAGTAGGTACGAAT"
assigned_label = "Criterion met"


###

test system: LXRb homodimer (NR concentration 270 nM); assay: PBM binding z-score (relative to random genomic background probes); higher = stronger binding; sequences stand for … in GC…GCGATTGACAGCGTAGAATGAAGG
Cut-off 0.1 on PBM binding z-score, inclusive. At or above means satisfied; below means not satisfied.

[[record]]
query_sequence = "CAAACTAGGTCAAGAGGTCGAAGTCCGCTTCCCG"
assigned_label = "satisfied"

[[record]]
query_sequence = "TTTTGTAGATCAACAGGAGGTTAAGAAAGATCGA"
assigned_label = "satisfied"

[[record]]
query_sequence = "ATCTCTAGGTAAGACTCAGTACAGTGAAGAACGC"
assigned_label = "satisfied"

[[record]]
query_sequence = "CCTCGGAGGACAGAAGGTCTGAGCTGTCCGCTTT"
assigned_label = "not satisfied"

[[record]]
query_sequence = "CGAACGAGGGCCTGAGTTGATAGCAAATGCCGAT"
assigned_label = "not satisfied"

[[record]]
query_sequence = "ATCGACAGGTCGACGAGGTGAGTATACACCGTTT"
assigned_label = "not satisfied"

[[record]]
query_sequence = "TCTTGTAGATCAACAGGAGGTTAACAAAGATCGA"
assigned_label = "not satisfied"

[[record]]
query_sequence = "ACTATTAGTTGAGGCGAGGGCAACCGATAGGTTG"
assigned_label = "satisfied"

[[record]]
query_sequence = "ACTAGCAGGCCGAGGGTCACTCAAGATTAGTCCG"
assigned_label = "not satisfied"

